METHOD_SUMMARY: Rat single-dose toxicokinetic study
Assay type: in vivo, Sprague Dawley rats
STATED_CONDITIONS: plasma, IV bolus, 3 mg/kg

| COMPOUND | half-life [min] |
| --- | --- |
| CC[C@H](OC)[C@@H](C)[C@H]1O[C@@H]1[C@@H](O)[C@H](C)/C=C/C=C(\C)[C@H]1OC(=O)C[C@H](O)CC[C@@](C)(O)[C@@H](OC(C)=O)/C=C/[C@@H]1C [Rebecsinib] | 26.8 |

* * *

METHOD_SUMMARY: Rat single-dose toxicokinetic study
Assay type: in vivo, Sprague Dawley rats
STATED_CONDITIONS: plasma, IV bolus, 8 mg/kg
MEASUREMENT_KIND: Tmax

| SMILES_INPUT | MEASUREMENT_KIND | RESULT |
| --- | --- | --- |
| CC[C@H](OC)[C@@H](C)[C@H]1O[C@@H]1[C@@H](O)[C@H](C)/C=C/C=C(\C)[C@H]1OC(=O)C[C@H](O)CC[C@@](C)(O)[C@@H](OC(C)=O)/C=C/[C@@H]1C | Tmax | ≤ 10 min |

* * *

METHOD_SUMMARY: Rat single-dose toxicokinetic study
Format: in vivo, Sprague Dawley rats
STATED_CONDITIONS: plasma, IV bolus, 1 mg/kg

| SMILES_INPUT | half-life (min) |
| --- | --- |
| CC[C@H](OC)[C@@H](C)[C@H]1O[C@@H]1[C@@H](O)[C@H](C)/C=C/C=C(\C)[C@H]1OC(=O)C[C@H](O)CC[C@@](C)(O)[C@@H](OC(C)=O)/C=C/[C@@H]1C | 20.5 |

* * *

METHOD_SUMMARY: Rabbit single-dose toxicokinetic study
Assay type: in vivo, New Zealand white rabbits
STATED_CONDITIONS: plasma, IV bolus, read-out: plasma t1/2
MEASUREMENT_KIND: half-life

| SMILES_INPUT | RESULT |
| --- | --- |
| CC[C@H](OC)[C@@H](C)[C@H]1O[C@@H]1[C@@H](O)[C@H](C)/C=C/C=C(\C)[C@H]1OC(=O)C[C@H](O)CC[C@@](C)(O)[C@@H](OC(C)=O)/C=C/[C@@H]1C | 7.2 to 53.4 min |

Source listed as patent US20260364072A1.
